Values from patent US20230218644A1

# SARS-CoV-2 3CLpro (Severe acute respiratory syndrome coronavirus 2, UniProt P0DTD1): IC50 values follow
Measured Quantity: IC50 (µM)

{"columns": ["Compound", "System", "Measured Quantity", "Endpoint Result"],
 "data": [
  ["CN(C)[C@@H]1C(O)=C(C(N)=O)C(=O)[C@@]2(O)C(O)=C3C(=O)c4c(O)c(NC(=O)CN5CCCC5)cc(F)c4C[C@H]3C[C@@H]12 [ERAVACYCLINE diHcl]", "SARS-CoV-2 3CLpro (Severe acute respiratory syndrome coronavirus 2, UniProt P0DTD1)", "IC50", 1.65],
  ["O=C(/C=C/c1ccc(O)c(O)c1)OC1CC(OC(=O)/C=C/c2ccc(O)c(O)c2)(C(=O)O)CC(O)C1O (stereo not drawn)", "SARS-CoV-2 3CLpro (Severe acute respiratory syndrome coronavirus 2, UniProt P0DTD1)", "IC50", 1.81],
  ["COc1cccc(OCCCN)c1-c1cc(Nc2cnc(C#N)cn2)n[nH]1 [PREXASERTIB diHCl]", "SARS-CoV-2 3CLpro (Severe acute respiratory syndrome coronavirus 2, UniProt P0DTD1)", "IC50", 2]
]}
